Numbers sourced from paper PMC5656653.

Assay: Biodistribution experiments in normal mice after i.v. injection
Type: in vivo
Conditions: male, ddY, mouse, in vivo, iv, total radioactivity, mice, i.v., 60 min after injection, mean (SD); read-out: Biodistribution of radioactivity, Large-intestine
Description: Experiments with animals were conducted in strict accordance with the Guidelines for the Care and Use of Laboratory Animals of Kanazawa University. […] Complete left femurs were isolated as representative bone samples, radioactivity was determined using gamma counters (AccuFLEX γ ARC-8001 in the case of ^18F, Hitachi, Ltd.), and background counts and physical decay were corrected during counting.
Where a SMILES comes first, the peptide text is derived from it. [ ]: non-standard residue; d: D form. The star is where a group is joined. DOTA = O=C(O)CN1CCN(CC(=O)O)CCN(CC(=O)*)CCN(CC(=O)O)CC1
assay.readout: tissue uptake dose at 1 h (%ID)
Give the number; %ID is assumed, so skip it.

The measured tissue uptake dose at 1 h associated with O=C(O)C[C@@H](NC(=O)[C@@H](CC(=O)O)NC(=O)[C@@H](CC(=O)O)NC(=O)[C@@H](CC(=O)O)NC(=O)[C@@H](CC(=O)O)NC(=O)[C@@H](CC(=O)O)NC(=O)[C@@H](CC(=O)O)NC(=O)[C@@H](CC(=O)O)NC(=O)[C@@H](CC(=O)O)NC(=O)[C@@H](CC(=O)O)NC(=O)[C@@H](CC(=O)O)NC(=O)CN1CCN(CC(=O)O)CCN(CC(=O)O)CCN(CC(=O)O)CC1)C(=O)O [^67Ga-DOTA-(D-Asp)11, metal not drawn] ({DOTA}-[dD][dD][dD][dD][dD][dD][dD][dD][dD][dD][dD]-OH) reads 0.03

====

experiment: Biodistribution experiments in normal mice after i.v. injection; assay type: in vivo; conditions: male, ddY, mouse, in vivo, iv, total radioactivity, mice, i.v., 180 min after injection, mean (SD); read-out: Biodistribution of radioactivity, Liver
Where a SMILES comes first, the peptide text is derived from it. [ ]: non-standard residue; d: D form. The star is where a group is joined. DOTA = O=C(O)CN1CCN(CC(=O)O)CCN(CC(=O)*)CCN(CC(=O)O)CC1
assay.readout: tissue uptake dose at 3 h
Form entry: enter the amount, then its unit.

The reported value for O=C(O)C[C@@H](NC(=O)[C@@H](CC(=O)O)NC(=O)[C@@H](CC(=O)O)NC(=O)[C@@H](CC(=O)O)NC(=O)[C@@H](CC(=O)O)NC(=O)[C@@H](CC(=O)O)NC(=O)[C@@H](CC(=O)O)NC(=O)[C@@H](CC(=O)O)NC(=O)[C@@H](CC(=O)O)NC(=O)[C@@H](CC(=O)O)NC(=O)[C@@H](CC(=O)O)NC(=O)CN1CCN(CC(=O)O)CCN(CC(=O)O)CCN(CC(=O)O)CC1)C(=O)O [^67Ga-DOTA-(D-Asp)11, metal not drawn] ({DOTA}-[dD][dD][dD][dD][dD][dD][dD][dD][dD][dD][dD]-OH) in terms of tissue uptake dose at 3 h is 0.13 %ID

====

experiment: Biodistribution experiments in normal mice after i.v. injection; type: in vivo; settings: male, ddY, mouse, in vivo, iv, total radioactivity, Biodistribution of radioactivity, Lung
Where a SMILES comes first, the peptide text is derived from it. [ ]: non-standard residue; d: D form. The star is where a group is joined. DOTA = O=C(O)CN1CCN(CC(=O)O)CCN(CC(=O)*)CCN(CC(=O)O)CC1
assay.readout: tissue uptake dose at 1 h (%ID)
Respond with the bare value in %ID.

Solved cases below.
O=C(O)C[C@@H](NC(=O)[C@@H](CC(=O)O)NC(=O)[C@@H](CC(=O)O)NC(=O)[C@@H](CC(=O)O)NC(=O)[C@@H](CC(=O)O)NC(=O)CN1CCN(CC(=O)O)CCN(CC(=O)O)CCN(CC(=O)O)CC1)C(=O)O [^67Ga-DOTA-(D-Asp)5, metal not drawn] ({DOTA}-[dD][dD][dD][dD][dD]-OH); 0.3
O=C(O)CC[C@@H](NC(=O)[C@@H](CCC(=O)O)NC(=O)[C@@H](CCC(=O)O)NC(=O)[C@@H](CCC(=O)O)NC(=O)[C@@H](CCC(=O)O)NC(=O)[C@@H](CCC(=O)O)NC(=O)[C@@H](CCC(=O)O)NC(=O)[C@@H](CCC(=O)O)NC(=O)[C@@H](CCC(=O)O)NC(=O)[C@@H](CCC(=O)O)NC(=O)[C@@H](CCC(=O)O)NC(=O)[C@@H](CCC(=O)O)NC(=O)[C@@H](CCC(=O)O)NC(=O)[C@@H](CCC(=O)O)NC(=O)CN1CCN(CC(=O)O)CCN(CC(=O)O)CCN(CC(=O)O)CC1)C(=O)O [^67Ga-DOTA-(D-Glu)14, metal not drawn]; 0.13

So for O=C(O)C[C@@H](NC(=O)[C@@H](CC(=O)O)NC(=O)CN1CCN(CC(=O)O)CCN(CC(=O)O)CCN(CC(=O)O)CC1)C(=O)O [^67Ga-DOTA-(D-Asp)2, metal not drawn] ({DOTA}-[dD]-[dD]-OH) , the logged tissue uptake dose at 1 h turned out to be 0.26

Form: compound = O=C(O)C[C@@H](NC(=O)[C@@H](CC(=O)O)NC(=O)[C@@H](CC(=O)O)NC(=O)[C@@H](CC(=O)O)NC(=O)[C@@H](CC(=O)O)NC(=O)[C@@H](CC(=O)O)NC(=O)[C@@H](CC(=O)O)NC(=O)[C@@H](CC(=O)O)NC(=O)CN1CCN(CC(=O)O)CCN(CC(=O)O)CCN(CC(=O)O)CC1)C(=O)O [^67Ga-DOTA-(D-Asp)8, metal not drawn] ({DOTA}-[dD][dD][dD][dD][dD][dD][dD][dD]-OH) ; tissue uptake dose at 1 h = 0.26

Sample O=C(O)CC[C@H](NC(=O)[C@H](CCC(=O)O)NC(=O)[C@H](CCC(=O)O)NC(=O)[C@H](CCC(=O)O)NC(=O)[C@H](CCC(=O)O)NC(=O)[C@H](CCC(=O)O)NC(=O)[C@H](CCC(=O)O)NC(=O)[C@H](CCC(=O)O)NC(=O)[C@H](CCC(=O)O)NC(=O)[C@H](CCC(=O)O)NC(=O)[C@H](CCC(=O)O)NC(=O)[C@H](CCC(=O)O)NC(=O)[C@H](CCC(=O)O)NC(=O)[C@H](CCC(=O)O)NC(=O)CN1CCN(CC(=O)O)CCN(CC(=O)O)CCN(CC(=O)O)CC1)C(=O)O [^67Ga-DOTA-(L-Glu)14, metal not drawn] ; tissue uptake dose at 1 h observed: 0.13

====

assay: Biodistribution experiments in normal mice after i.v. injection; type: in vivo; details: male, ddY, mouse, in vivo, iv, total radioactivity, Biodistribution of radioactivity, Muscle
Where a SMILES comes first, the peptide text is derived from it. [ ]: non-standard residue; d: D form. The star is where a group is joined. DOTA = O=C(O)CN1CCN(CC(=O)O)CCN(CC(=O)*)CCN(CC(=O)O)CC1
Entries and their tissue uptake dose at 3 h values follow.
Record the result as number plus unit.

O=C(O)C[C@@H](NC(=O)[C@@H](CC(=O)O)NC(=O)[C@@H](CC(=O)O)NC(=O)[C@@H](CC(=O)O)NC(=O)[C@@H](CC(=O)O)NC(=O)CN1CCN(CC(=O)O)CCN(CC(=O)O)CCN(CC(=O)O)CC1)C(=O)O [^67Ga-DOTA-(D-Asp)5, metal not drawn] ({DOTA}-[dD][dD][dD][dD][dD]-OH); 0.07 %ID
O=C(O)C[C@@H](NC(=O)[C@@H](CC(=O)O)NC(=O)CN1CCN(CC(=O)O)CCN(CC(=O)O)CCN(CC(=O)O)CC1)C(=O)O [^67Ga-DOTA-(D-Asp)2, metal not drawn] ({DOTA}-[dD]-[dD]-OH); 0.08 %ID
O=C(O)CC[C@@H](NC(=O)[C@@H](CCC(=O)O)NC(=O)[C@@H](CCC(=O)O)NC(=O)[C@@H](CCC(=O)O)NC(=O)[C@@H](CCC(=O)O)NC(=O)[C@@H](CCC(=O)O)NC(=O)[C@@H](CCC(=O)O)NC(=O)[C@@H](CCC(=O)O)NC(=O)[C@@H](CCC(=O)O)NC(=O)[C@@H](CCC(=O)O)NC(=O)[C@@H](CCC(=O)O)NC(=O)[C@@H](CCC(=O)O)NC(=O)[C@@H](CCC(=O)O)NC(=O)[C@@H](CCC(=O)O)NC(=O)CN1CCN(CC(=O)O)CCN(CC(=O)O)CCN(CC(=O)O)CC1)C(=O)O [^67Ga-DOTA-(D-Glu)14, metal not drawn]; 0.02 %ID
O=C(O)CC[C@H](NC(=O)[C@H](CCC(=O)O)NC(=O)[C@H](CCC(=O)O)NC(=O)[C@H](CCC(=O)O)NC(=O)[C@H](CCC(=O)O)NC(=O)[C@H](CCC(=O)O)NC(=O)[C@H](CCC(=O)O)NC(=O)[C@H](CCC(=O)O)NC(=O)[C@H](CCC(=O)O)NC(=O)[C@H](CCC(=O)O)NC(=O)[C@H](CCC(=O)O)NC(=O)[C@H](CCC(=O)O)NC(=O)[C@H](CCC(=O)O)NC(=O)[C@H](CCC(=O)O)NC(=O)CN1CCN(CC(=O)O)CCN(CC(=O)O)CCN(CC(=O)O)CC1)C(=O)O [^67Ga-DOTA-(L-Glu)14, metal not drawn]; 0.3 %ID

# next compound below
Query O=C(O)C[C@@H](NC(=O)[C@@H](CC(=O)O)NC(=O)[C@@H](CC(=O)O)NC(=O)[C@@H](CC(=O)O)NC(=O)[C@@H](CC(=O)O)NC(=O)[C@@H](CC(=O)O)NC(=O)[C@@H](CC(=O)O)NC(=O)[C@@H](CC(=O)O)NC(=O)CN1CCN(CC(=O)O)CCN(CC(=O)O)CCN(CC(=O)O)CC1)C(=O)O [^67Ga-DOTA-(D-Asp)8, metal not drawn] ({DOTA}-[dD][dD][dD][dD][dD][dD][dD][dD]-OH) yields tissue uptake dose at 3 h of 0.14 %ID
